# TESTED TARGET: Synaptic vesicular amine transporter (Rattus norvegicus)
# Sequence (Q01827 whole entry): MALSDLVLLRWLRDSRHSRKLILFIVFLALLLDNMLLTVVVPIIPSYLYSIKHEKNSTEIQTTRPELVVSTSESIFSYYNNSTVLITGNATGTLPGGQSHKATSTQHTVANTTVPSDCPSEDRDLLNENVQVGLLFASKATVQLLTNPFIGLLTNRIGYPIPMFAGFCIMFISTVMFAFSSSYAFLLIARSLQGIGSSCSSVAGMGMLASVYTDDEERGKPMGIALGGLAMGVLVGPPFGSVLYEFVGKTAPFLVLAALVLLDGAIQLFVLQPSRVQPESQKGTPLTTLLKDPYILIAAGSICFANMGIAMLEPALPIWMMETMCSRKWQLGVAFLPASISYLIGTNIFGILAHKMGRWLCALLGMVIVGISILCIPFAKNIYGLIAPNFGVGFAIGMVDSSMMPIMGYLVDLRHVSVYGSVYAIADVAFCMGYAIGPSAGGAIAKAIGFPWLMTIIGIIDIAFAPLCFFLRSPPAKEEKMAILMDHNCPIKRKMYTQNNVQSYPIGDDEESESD
# EXPERIMENTAL DETAILS: Inhibition of VMAT2-mediated [3H]DA uptake in rat striatal synaptic vesicles by liquid scintillation spectroscopic analysis
Please go through the items and note down their pKi.
Numbers only, as −log10 of the molar value.

Example entries and their recorded answers appear below.
OC[C@H](O)CN1[C@H](CCc2ccc3c(c2)OCO3)CC[C@@H]1CCc1ccc2c(c1)OCO2	6.57
COc1ccccc1CC[C@@H]1CC[C@H](CCc2ccccc2OC)N1C[C@@H](O)CO	6.57
COc1ccc(CC[C@@H]2CC[C@H](CCc3ccc(OC)c(OC)c3)N2C[C@@H](O)CO)cc1OC	5.42
COc1ccc(CC[C@@H]2CC[C@H](CCc3ccc(OC)cc3)N2C[C@@H](O)CO)cc1	7.31

Read the next record carefully.
Any idea what its pKi is? The compound is "OC[C@H](O)CN1[C@H](CCc2ccccc2)CC[C@@H]1CCc1ccccc1"
6.55

Entry source: ChEMBL document CHEMBL2380262
